# system: Atrial natriuretic peptide receptor 2 (Homo sapiens)
# experiment: GC-B stimulated cGMP production enhancers – HEK293 GC-B cells, cGMP TR-FRET, EC30 CNP, primary screen (AID 1920062)
# test parameters: at 10 µM, hits give high values, 0% at EC30 CNP, 100% saturating CNP
In all, about 370,000 compounds went through this assay and about 400 (0.11%) were called active. The list comes from a sample in which actives are over-represented; it also holds close analogues and randomly drawn compounds.
Item-by-item account of activation
metric: activation (%)

In [3]: df
Out[3]:
                                    compound  units  observed_value
 0  O=C(CCCCCN1C(=O)C2C3C=CC(C3)C2C1=O)Nc1ccccn1 (stereo not given)      %            9.16
 1  COc1ccccc1CCCNC(=O)C1CCC(=O)N(CCN2CCOCC2)C1 (stereo not given)      %            0.93
 2  COc1ccc(OC)c(-n2nnnc2SCC(=O)Nc2cc(C)ccc2OC)c1      %           -3.61
 3  O=C(COc1cccnc1[N+](=O)[O-])Nc1ccc(Cl)cc1F      %           -6.77
 4  COc1cc(/C=C2/C(=O)ON=C2C)ccc1OCc1cccc(F)c1      %            38.1
 5  c1coc(CCNc2ncnc3ccc(-c4ccc5c(c4)OCO5)cc23)c1      %            50.1
 6  NC(=O)NC(=O)C(OC(=O)CCNS(=O)(=O)c1ccccc1)c1ccccc1 (stereo not given)      %            0.79
 7   C/C=C/c1ccc(OCCOc2ccc(C=O)cc2OC)c(OC)c1      %           -3.69
 8  O=C(OCCN1C(=O)c2ccccc2C1=O)[C@@H]1CC(O)CN1S(=O)(=O)c1ccccc1[N+](=O)[O-] (stereo not given in full)      %            -3.1
 9  COC(=O)c1ccc([C@@H](O)[C@H](C)C(=O)CC(=O)OC(C)(C)C)cc1      %            5.42
10  COCCCN1C(=O)c2ccc(C(=O)OCC(=O)NCc3ccccc3OC)cc2C1=O      %            -7.6
11  CC1CN/C(=C\C(=O)c2ccc(Br)cc2)C(=O)N1 (stereo not given)      %           -4.27
12               Cc1ccc(C(=O)N2CCCC2)c(F)c1F      %            0.58
13  CC(C)[C@H](NC(=O)c1ccc(F)cc1)C(=O)OCC(=O)NC(=O)c1cccn1C      %           -6.93
14  Cc1oc2nc(SCC(=O)Nc3ccc(S(N)(=O)=O)cc3)nc(NC(=O)c3ccccc3)c2c1C      %           -7.74
15   C=CCN(CC=C)C(=O)COC(=O)c1n[nH]c2ccccc12      %           -3.45
16          O/N=C(\c1ccc2c(c1)OCCO2)C1CCCCC1      %            0.81
17  C=CCn1nc(C(=O)OCC)cc1-c1sc(NC(=O)c2ccccc2)nc1C      %            3.57
18  O=C(NCCc1ccco1)c1nn(Cc2ccccc2)c(=O)c2ccccc12      %            49.5
19  CC(NCc1nc2ccccc2n1C)C12CC3CC(CC(C3)C1)C2 (stereo not given)      %           -3.22
